FYI, the data here is from PubChem BioAssay AID1963597.

- Tested on: human liver microsomes, metabolic stability half-life
- PROTOCOL_DETAILS: NCATS Human Liver Microsomal (HLM) Stability Profiling
- CONDITIONS_USED: higher = more stable; screened at 1 µM (by protocol)
Recorded half-life, one value per entry.

These recorded examples may help you get a feel for the data.
Using the record for `CC1(C)SCCN(S(=O)(=O)c2ccc(OCC#CCO)cc2)[C@@H]1C(=O)NO` , report its half-life.
> 2 h

Using the record for `CCOc1ccc(NC(=O)N2CCN(c3ccc(Cl)c(Cl)c3)CC2)cc1` , report its half-life.
> 2 h

We next turn to a different compound, shown below.
Using the record for CCC1(O)CC2c3cc(OC)c(OC)cc3CCN2CC1CC(C)C (stereo not drawn) , report its half-life.
> 2 h
